Form: system (GST-JAK2(808-1132) (Homo sapiens)), quantity (IC50), values below.
observation type: IC50 (µM)

Here are 3 compounds together with their reported answers.
# compound, value
measured = [
    ("Cc1cc(Nc2nc3cccc(-c4cc(F)c(CN5CCOCC5)c(F)c4)c3o2)ccc1C(=O)NCCN(C)C", 0.0111),
    ("CN1CCN(c2cccc(Nc3nc4cccc(-c5cc(F)c(CN6CCS(=O)(=O)CC6)c(F)c5)c4o3)c2)CC1", 0.019),
    ("Cc1cc(Nc2nc3cccc(-c4cc(F)c(CN5CCS(=O)(=O)CC5)c(F)c4)c3o2)ccc1C(=O)N1CCCC1", 0.00435),
]

[I] COc1ccc(Nc2nc3cccc(-c4ccc(C(=O)N5CCOCC5)c(C)c4)c3o2)cc1N1CCN(C)CC1
[II] COC(=O)c1ccc(Nc2nc3cccc(-c4ccc(C(=O)N5CCOCC5)cc4)c3o2)cc1OC
[III] Cc1cc(Nc2nc3ccnc(-c4cc(F)c(CN5CCS(=O)(=O)CC5)c(F)c4)c3o2)ccc1C(=O)N(C)C
[IV] CCN(CC)C(=O)c1ccc(Nc2nc3cccc(-c4cc(F)c(CN5CCOCC5)c(F)c4)c3o2)cc1C
Qu. List by increasing IC50. Put the labels in the requested order and write them down.
Ans. IV, I, II, III
(IV: 0.014 µM, I: 0.03 µM, II: 0.062 µM, III: 0.13 µM)

[P] Cc1cc(-c2cccc3nc(Nc4ccc(C(=O)N5CCCC5)c(C)c4)oc23)ccc1CN1CCOCC1
[Q] Cc1cc(Nc2nc3cccc(-c4ccc(S(C)(=O)=O)cc4)c3o2)ccc1N1CCN(C(C)C)CC1
[R] COc1cc(Nc2nc3ccnc(-c4ccc(S(N)(=O)=O)cc4)c3o2)cc(OC)c1OC
[S] Cc1cc(Nc2nc3cccc(-c4ccc(CC(=O)N5CCOCC5)cc4)c3o2)ccc1C(=O)N(C)C
[T] Cc1cc(Nc2nc3cccc(-c4ccc(C(=O)N5CCOCC5)c(C)c4)c3o2)ccc1C(=O)N(C)C
Qu. Task field, ranking: reported IC50, descending order. Labels, requested order.
Ans. R, P, Q, T, S
